system: KM-H2 (Hodgkin's Lymphoma); assay: combination Emax (second highest fraction inhibited in the dose matrix, 72 h); higher = more inhibition; extreme values may be limits of the assay
Property: combination Emax
Keep it simple and answer with nothing but the number.

Please give the documented combination Emax of CCN(CCO)CCCOc1ccc2c(Nc3cc(CC(=O)Nc4cccc(F)c4)[nH]n3)ncnc2c1 [AZD2811] + C[C@@H]1COCCN1C2=NC(=NC(=C2)C3(CC3)[S@](=N)(=O)C)C4=C5C=CNC5=NC=C4 [AZD6738] (first compound max 1 µM, 7x7, partner max 10 µM)
0.766

Please give the documented combination Emax of CC(=O)Nc1cccc(-n2c(=O)n(C3CC3)c(=O)c3c(Nc4ccc(I)cc4F)n(C)c(=O)c(C)c32)c1 [Trametinib] + Cc1nc(-c2cn3c(n2)-c2ccc(-c4cnn(C(C)(C)C(N)=O)c4)cc2OCC3)n(C(C)C)n1 [Taselisib] (first compound max 1 µM, 7x7, partner max 10 µM)
0.227

This collection of values is drawn from the supplement of paper PMC11061612.
